Where a SMILES comes first, the peptide text is derived from it. [ ]: non-standard residue; d: D form. Ala(2-NH2-benzothiazol-6-yl) = Nc1nc2ccc(C[C@H](N)C(=O)O)cc2s1
Notes on pKi obtained with Mu-type opioid receptor (Homo sapiens, UniProt P35372).
Sequence (P35372 whole entry): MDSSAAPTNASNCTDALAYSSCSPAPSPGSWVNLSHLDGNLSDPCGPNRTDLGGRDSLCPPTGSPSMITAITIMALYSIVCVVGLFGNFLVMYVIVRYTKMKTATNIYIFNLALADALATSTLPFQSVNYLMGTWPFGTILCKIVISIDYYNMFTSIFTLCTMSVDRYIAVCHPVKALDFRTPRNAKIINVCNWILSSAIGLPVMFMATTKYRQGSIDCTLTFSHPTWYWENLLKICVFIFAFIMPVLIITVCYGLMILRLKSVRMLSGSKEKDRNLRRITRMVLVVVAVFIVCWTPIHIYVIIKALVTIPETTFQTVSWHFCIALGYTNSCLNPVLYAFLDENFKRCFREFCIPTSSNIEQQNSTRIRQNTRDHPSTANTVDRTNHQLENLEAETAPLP
// returns pKi (minus log10 of molar concentration), number only

Query: GET /values?readout=pKi&item= CC(C)C[C@@H](NC(=O)[C@H](Cc1ccccc1)NC(=O)CNC(=O)[C@@H](C)NC(=O)[C@@H](N)Cc1cccc(C(N)=O)c1)C(=O)O
Response: 6.25

Query: GET /values?readout=pKi&item= CC(C)C[C@H](NC(=O)[C@H](Cc1ccccc1)NC(=O)CNC(=O)[C@@H](CO)NC(=O)[C@@H](N)Cc1cccc(C(N)=O)c1)C(=O)N[C@H](C(=O)O)[C@@H](C)O
Response: 5.96

Query: GET /values?readout=pKi&item= CSCC[C@H](NC(=O)[C@H](Cc1ccccc1)NC(=O)CNC(=O)[C@@H](C)NC(=O)[C@@H](N)Cc1ccc2nc(N)sc2c1)C(=O)O
Response: 7.00

Query: GET /values?readout=pKi&item= CC(C)C[C@H](NC(=O)[C@H](Cc1ccccc1)NC(=O)CNC(=O)CNC(=O)[C@@H](N)Cc1ccc2nc(N)sc2c1)C(=O)O (H-[Ala(2-NH2-benzothiazol-6-yl)]GGFL-OH)
Response: 5.92

Query: GET /values?readout=pKi&item= CC(C)C[C@H](NC(=O)[C@H](Cc1ccccc1)NC(=O)CNC(=O)[C@@H](CO)NC(=O)[C@@H](N)Cc1ccc2nc(N)sc2c1)C(=O)N[C@H](C(=O)O)[C@@H](C)O
Response: 6.19

Query: GET /values?readout=pKi&item= CC(C)C[C@@H](NC(=O)[C@H](Cc1ccccc1)NC(=O)CNC(=O)[C@@H](C)NC(=O)[C@@H](N)Cc1ccc(N)cc1)C(=O)O
Response: 5.85

* * *

Notes on Ki obtained with Mu-type opioid receptor (Homo sapiens).
*1 amine or outer side, *2 acyl side, *3 side chain or, on linkers, in order; H or OH if unused. Where a SMILES comes first, the peptide text is derived from it. [ ]: non-standard residue; d: D form. Phe(3-CONH2) = NC(=O)c1cccc(C[C@H](N)C(=O)O)c1; Phe(4-CONH2) = NC(=O)c1ccc(C[C@H](N)C(=O)O)cc1; X1 = O=C([C@H](Cc1cc[n+]([O-])cc1)N[*:1])[*:2]

Query: GET /values?readout=Ki&item= CC(C)C[C@H](NC(=O)[C@H](Cc1ccccc1)NC(=O)CNC(=O)CNC(=O)[C@@H](N)Cc1cccc(C(N)=O)c1)C(=O)O (H-[Phe(3-CONH2)]GGFL-OH)
Response: > 10 µM

Query: GET /values?readout=Ki&item= CC(C)C[C@@H](NC(=O)[C@H](Cc1ccccc1)NC(=O)CNC(=O)[C@@H](C)NC(=O)[C@@H](N)Cc1ccc2nc(N)sc2c1)C(=O)O
Response: 1.2 µM

Query: GET /values?readout=Ki&item= CC(C)C[C@@H](NC(=O)[C@H](Cc1ccccc1)NC(=O)CNC(=O)[C@@H](C)NC(=O)[C@@H](N)Cc1cc[n+]([O-])cc1)C(=O)O
Response: > 10 µM

Query: GET /values?readout=Ki&item= CC(C)C[C@H](NC(=O)[C@H](Cc1ccccc1)NC(=O)CNC(=O)CNC(=O)[C@@H](N)Cc1cc[n+]([O-])cc1)C(=O)O (H-[X1]GGFL-OH)
Response: > 10 µM

Query: GET /values?readout=Ki&item= CC(C)C[C@@H](NC(=O)[C@H](Cc1ccccc1)NC(=O)CNC(=O)[C@@H](C)NC(=O)[C@@H](N)Cc1ccc(C(=O)O)cc1)C(=O)O
Response: > 10 µM

Query: GET /values?readout=Ki&item= CSCC[C@H](NC(=O)[C@H](Cc1ccccc1)NC(=O)CNC(=O)CNC(=O)[C@@H](N)Cc1ccc(C(N)=O)cc1)C(=O)O (H-[Phe(4-CONH2)]GGFM-OH)
Response: 0.028 µM
